# Measured target: T1, HLA-A*0201 molecule expressed on human T2 cells (human)
# T1 construct: also called HLA-A2
# Experiment summary: T2 cells (HLA-A*0201), peptide titration, anti-HLA-A2 flow cytometry
Please go through the items and note down their in vitro binding affinity (relative to HIV pol reference peptide).

Study these solved cases before continuing.
>>> result("SLVGILHII [CD19-B11]")
"0.8 ratio to HIV pol 589-597"
>>> result("YVFEHPELL [CD22-B11]")
"0.5 ratio to HIV pol 589-597"
>>> result("YLFLGILSL [MS4A1-B5]")
"0.7 ratio to HIV pol 589-597"
>>> result("YILGGLLMV [MS4A1-B12]")
"3.5 ratio to HIV pol 589-597"
>>> result("WVFEHPETL [CD22-H1]")
"5.3 ratio to HIV pol 589-597"
>>> result("LLFGAPALL (also called TNFRSF13-H1) [TNFRSF13C-H1]")
"3 ratio to HIV pol 589-597"
>>> result("FLAFVPLQL (also called CD37-B1i) [CD37-B1]")
"1.6 ratio to HIV pol 589-597"
>>> result("LLVGILHLV [CD19-B1]")
"0.7 ratio to HIV pol 589-597"
>>> result("YLAYLIFEL [CD19-B6]")
"0.4 ratio to HIV pol 589-597"
>>> result("LMFGAPALV [TNFRSF13C-B1]")
"1.1 ratio to HIV pol 589-597"

Below are some binders; for each one, tell me its in vitro binding affinity (relative to HIV pol reference peptide).
1. TLAYLIFCL [CD19-H6]
2. ILPGLLFGL [TNFRSF13C-B31]
3. LMIPAGIYA [MS4A1-H3]
4. LQMGGFYLL [CD19-B7]
5. AMNSLSLYI [MS4A1-B4]

*A*
1: 0.5 ratio to HIV pol 589-597; 2: 0.4 ratio to HIV pol 589-597; 3: 0.5 ratio to HIV pol 589-597; 4: 6.8 ratio to HIV pol 589-597; 5: 2.1 ratio to HIV pol 589-597

Below are some binders; for each one, tell me its in vitro binding affinity (relative to HIV pol reference peptide).
1. GMAFVPLLL (also called CD37-B11i) [CD37-B11]
2. TLLFLTPML [CD19-B2]

*A*
3 ratio to HIV pol 589-597
1 ratio to HIV pol 589-597

Below are some binders; for each one, tell me its in vitro binding affinity (relative to HIV pol reference peptide).
1. ILIPAGIYL [MS4A1-B3]
2. FMPGLLFGA [TNFRSF13C-B33]
3. GLAFVPLQI [CD37-H1]
4. ILNSLSLLL [MS4A1-B41]

*A*
1. 0.1 ratio to HIV pol 589-597
2. 3.5 ratio to HIV pol 589-597
3. 17.5 ratio to HIV pol 589-597
4. 0.3 ratio to HIV pol 589-597
